Listing: relative viability of selected compounds
- Test system: SK-ES-1
- test: relative viability vs DMSO control (72 h) (fraction); higher = more viable cells
- run conditions: 0.00051 µM
The answer should be written as a number, with no unit following it.

INSERT INTO assay_data (compound, reported_value) VALUES
  ('Cn1ncnc1[C@H]1c2n[nH]c(=O)c3cc(F)cc(c23)N[C@@H]1c1ccc(F)cc1', 0.9),
  ('O=C(Nc1ccc(OC(F)(F)Cl)cc1)c1cnc(N2CC[C@@H](O)C2)c(-c2cc[nH]n2)c1', 0.999),
  ('Cc1cc2c(F)c(Oc3ncnn4cc(OC[C@@H](C)O)c(C)c34)ccc2[nH]1', 1.04),
  ('COc1cc(CCc2cc(NC(=O)c3ccc(N4CC(C)NC(C)C4)cc3)n[nH]2)cc(OC)c1 (stereo unspecified)', 1.02),
  ('CCc1cnn2c(NCc3ccc[n+]([O-])c3)cc(N3CCCC[C@H]3CCO)nc12', 1);

GET /values?readout=relative viability&item= "CC1(COc2ccc3c(c2)ncn3-c2ccc3cccc(N4CCC(N)CC4)c3n2)COC1"
0.993

====

In this section, each of the compounds is paired with its reported relative viability.
- System: G401
- test: relative viability vs DMSO control (72 h) (fraction); higher = more viable cells
- run conditions: 0.00017 µM
A bare number is all that is needed in reply.

Worked cases, answers included:
INSERT INTO measurements (mol, target_or_system, property_measured, reported_value) VALUES
  ('Cn1cc(C2=C(c3cn(C4CCN(Cc5ccccn5)CC4)c4ccccc34)C(=O)NC2=O)c2ccccc21', 'G401', 'relative viability', 1.08),
  ('CC1(C)CC=C(c2nc(C3CC(C)(C)OC(C)(C)C3)ccc2NC(=O)c2nc(C#N)c[nH]2)CC1', 'G401', 'relative viability', 1.02),
  ('C[C@]12O[C@H](C[C@]1(O)CO)n1c3ccccc3c3c4c(c5c6ccccc6n2c5c31)CNC4=O', 'G401', 'relative viability', 1.01),
  ('COc1cc(Nc2ncc(F)c(Nc3ccc4c(n3)N(COP(=O)(O)O)C(=O)C(C)(C)O4)n2)cc(OC)c1OC', 'G401', 'relative viability', 0.989),
  ('CCc1cnn2c(NCc3ccc[n+]([O-])c3)cc(N3CCCC[C@H]3CCO)nc12', 'G401', 'relative viability', 0.997);

Given the compound "N#CC1(c2ccc(NC(=O)c3cccnc3NCc3ccncc3)cc2)CCCC1" , what is its reported relative viability?
1.01

I am curious: what relative viability value has been reported for "COC(=O)N[C@@H](C)CNc1nccc(-c2cn(C(C)C)nc2-c2cc(Cl)cc(NS(C)(=O)=O)c2F)n1" ?
0.975

Would you mind telling me what relative viability value was observed for "Cc1cccc(-c2nn3c(c2-c2ccnc4ccc(C(N)=O)cc24)CCC3)n1" ?
0.977

====

- Test system: HT1080
- test: relative viability vs DMSO control (72 h) (fraction); higher = more viable cells
- run conditions: 1.111 µM
property measured: relative viability
Keep it simple and answer with nothing but the number.

A selection of reference data follows.
INSERT INTO results (compound, reported_value) VALUES
  ('CC(C)NC[C@@H](C(=O)N1CCN(c2ncnc3c2[C@H](C)C[C@H]3O)CC1)c1ccc(Cl)cc1 [Ipatasertib]', 1.06),
  ('CNC(=O)c1nnc(NC(=O)C2CC2)cc1Nc1cccc(-c2ncn(C)n2)c1OC', 1.1);

Consider the compound shown here: CC(C)(O)CNc1nc(Nc2ccnc(C(F)(F)F)c2)nc(-c2cccc(C(F)(F)F)n2)n1 [Enasidenib] What is its recorded relative viability?
1.16

For N#CC1(c2ccc(NC(=O)c3cccnc3NCc3ccncc3)cc2)CCCC1 [Apatinib] , what is its reported relative viability?
1.03

Quick one: relative viability of O=c1sn(-c2cccc3ccccc23)c(=O)n1Cc1ccccc1 [Tideglusib] ?
1.07

For the compound CCN(CC)CCNC(=O)c1c(C)[nH]c(/C=C2\C(=O)Nc3ccc(F)cc32)c1C [Sunitinib] , what relative viability is on record?
1.06

GET /values?readout=relative viability&item= CC1(C)CC=C(c2nc(C3CC(C)(C)OC(C)(C)C3)ccc2NC(=O)c2nc(C#N)c[nH]2)CC1 [Edicotinib]
0.979
